measured on: T1, LAG3 Protein, Human, Recombinant (His Tag) (Sino Biological Catalog No. 16498-H08H) (human, UniProt P18627 23-450)
T1 construct: Bought protein; also called hLAG3-His; LAG3-His; not shown: His tag
T1 sequence (looked up): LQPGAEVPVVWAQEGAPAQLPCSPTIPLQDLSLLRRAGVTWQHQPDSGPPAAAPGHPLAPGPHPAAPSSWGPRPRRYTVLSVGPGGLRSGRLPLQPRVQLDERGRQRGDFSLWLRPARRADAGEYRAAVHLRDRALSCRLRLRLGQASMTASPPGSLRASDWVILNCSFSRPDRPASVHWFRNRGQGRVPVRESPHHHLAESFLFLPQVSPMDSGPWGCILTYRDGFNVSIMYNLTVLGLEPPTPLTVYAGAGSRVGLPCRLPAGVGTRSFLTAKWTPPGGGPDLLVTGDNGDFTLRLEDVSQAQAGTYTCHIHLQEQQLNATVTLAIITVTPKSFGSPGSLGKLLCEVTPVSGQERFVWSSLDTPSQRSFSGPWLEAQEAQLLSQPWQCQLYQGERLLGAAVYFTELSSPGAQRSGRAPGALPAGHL
assay summary: SPR binning on LAG3-His; competitor 24
Define the label as y when RU is strictly less than -10 RU and as n in all remaining cases.

| binder | label |
| --- | --- |
| sdAb No. 20 (VHH, Fc of the tested form not described; also called sdAb 20; not shown: Fc part implied by anti-human Fc capture) VHH: QVQLVESGGGLVQPGGSLRLSCAASGLTLDGYAVGWFRQAPGKDREGLSCISGSDGSTHYLDSVKGRFTISRDNAKSTMALQMNSLQFGDTAIYYCAARRGSCSGSWTYWGQGTQVTVSS | y |

Query block: I'd appreciate it if you could check whether sdAb No. 25 (VHH, Fc of the tested form not described; also called sdAb 25; sdAb #25; not shown: Fc part implied by anti-human Fc capture and anti-human IgG Fc detection) VHH: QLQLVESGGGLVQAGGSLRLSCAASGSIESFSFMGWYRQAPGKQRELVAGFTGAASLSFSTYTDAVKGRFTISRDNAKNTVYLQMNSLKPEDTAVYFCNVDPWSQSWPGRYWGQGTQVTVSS has RU smaller than -10 RU.
Result block: n

Query block: I'd appreciate it if you could check whether sdAb No. 73 (VHH, Fc not described; also called sdAb 73; not shown: Fc part implied by anti-human Fc capture) VHH: QVQLVESGGGLVQPGGSLKLSCTASGFTLDYYAIAWFRQAPGKEREAVSCISSSDGSTRYADSVKGRFTISRDNAKNTVYLQMNSLKPEDTAVYYCAADPYGDCRGPYDYWGQGTQVTVSS has RU smaller than -10 RU.
Result block: n

Query block: I'd appreciate it if you could check whether sdAb No. 1 (VHH, the tested form was captured by anti-human Fc, its Fc is not described; also called sdAb 1; not shown: Fc part implied by anti-human Fc capture) VHH: QLQLVESGGGLVQAGGSLRLSCAASGFTFDDYAIGWFRQAPGKEREGVSCIRSSDGSTYYADSVKGRFTISSDNAKNTVYLQMNSLKPEDTAVYYCAKDNYSDCRGPYHYWGQGTQVTVSS has RU smaller than -10 RU.
Result block: y

Query block: I'd appreciate it if you could check whether sdAb No. 21 (VHH, Fc of the tested form not described; also called sdAb 21; not shown: Fc part implied by anti-human Fc capture) VHH: QLQLVESGGGLVQPGGSLRLSCAASGLTLDGYAIAWFRQAPGKEREGLSCISGTDGSTHYLDSVKGRFTISRDNGKNTMALQMNSLQFGDTAIYYCAARRGSCSGSWTYWGQGTQITVSS has RU smaller than -10 RU.
Result block: y

Query block: I'd appreciate it if you could check whether sdAb No. 17 (VHH, Fc of the tested form not described; also called sdAb 17; not shown: Fc part implied by anti-human Fc capture and anti-human IgG1 Fc detection) VHH: QLQLVESGGGLVQPGGSLRLSCAASGLTLDGYAIGWFRQAPGKEREGLACISGSDGSTHYLDSVKGRFTISRDNGKNTMALQMNSLQFGDTAIYYCAARRGSCSGSWTYWGQGTQVTVSS has RU smaller than -10 RU.
Result block: y
